study-system: HIV-1 YU-2 gp120 (HIV-1 (YU-2), UniProt P35961)
assay-remarks: SPR
measurement-name: IC50

Solved entries:
INSERT INTO measurements (binder, result) VALUES
  ('Fab m18 K31A (LCDR1) (Fab, V domains shown) VH: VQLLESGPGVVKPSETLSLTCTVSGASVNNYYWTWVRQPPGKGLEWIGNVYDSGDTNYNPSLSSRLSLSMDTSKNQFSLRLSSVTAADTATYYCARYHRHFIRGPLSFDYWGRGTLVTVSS VL: LQMTQSPSFLSASVGDRVSITCRASQDIQAFLAWYQLTPGDAPKLLMYSASTLQSGVPSRFSGSGSGTEFTLTISGLQPEDFATYYCQHLKRYPYTFGQGTKLEIS', '> 500 nM'),
  ('Fab m18 S54A (HCDR2) (Fab, V domains shown) VH: VQLLESGPGVVKPSETLSLTCTVSGASVNNYYWTWVRQPPGKGLEWIGNVYDAGDTNYNPSLSSRLSLSMDTSKNQFSLRLSSVTAADTATYYCARYHRHFIRGPLSFDYWGRGTLVTVSS VL: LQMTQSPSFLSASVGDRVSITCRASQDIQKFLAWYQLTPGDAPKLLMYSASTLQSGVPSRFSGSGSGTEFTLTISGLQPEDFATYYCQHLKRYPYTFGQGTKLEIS', '> 1000 nM');

Then this binder:
IN: Suppose we examine the binder Fab m18 T57A (HCDR2) (Fab, V domains shown) VH: VQLLESGPGVVKPSETLSLTCTVSGASVNNYYWTWVRQPPGKGLEWIGNVYDSGDANYNPSLSSRLSLSMDTSKNQFSLRLSSVTAADTATYYCARYHRHFIRGPLSFDYWGRGTLVTVSS VL: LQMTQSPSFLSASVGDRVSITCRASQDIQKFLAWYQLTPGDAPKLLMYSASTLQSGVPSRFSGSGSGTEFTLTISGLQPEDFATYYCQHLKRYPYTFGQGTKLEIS ; what IC50 value has been reported?
OUT: 33.1 nM
